run-description: yeast display, Sf9 membrane polyspecificity reagent, FACS + sequencing; frameworks hold sequencing errors
measure: polyreactivity (PSR sort gate)

residues | measure | data-value
QVQLVESGGGLVQAGGRLRLSCAASGRSFYSYTMGWYRQAPGKERELVAAIRKSGGRTYYADSVKGRFTISRDNAKNTVYLQMNSLKPEDTAVYYCATTNYELSYYYWGQGTQVTVSS | polyreactivity (PSR sort gate) | high polyreactivity
QVQLVESGGGLVQAGGSLRLSCAASGLTFRPYTMGWYRQAPGKERELVAAISARGGRTYYADSVKGRFTISRDNAKNTVYLQMNSLKPEDTAVYYCATLETTGVNYWGQGTQVTVSS | polyreactivity (PSR sort gate) | high polyreactivity
QVQHVESGGGLVQAGGSLRLSCAASGRTFRLYAMGRYRMAPGKERELVAAITRGGRTNYADSVKGRFTISRDNAKNTVYLQMNSLKPEDTAVYYCAVAGFDRGQYVRYYYWGQGTQVTVSS | polyreactivity (PSR sort gate) | low polyreactivity
QVQLVESGGGLVQAGGSLRLSCAASGSTFYPYAMGWYRQAPGKEREFVAAIRSSGTSTYYADSVKGRFTISRDNAKNTVYLQMNSLKPEDTEVYYGAARVRGDSVSRTKPASIGGGSWGQGTQVTVSS | polyreactivity (PSR sort gate) | high polyreactivity
QVQLVESGGGLVQAGGSLRLSCAASGLIFFYYAMGWYRQAPGKERELVATINLNGGSTYYADSVKGRFTISRDNAKNSVYLQMNSLKPEDTAGYYCAAAGTKYYARYYYWGQGTQVTVSS | polyreactivity (PSR sort gate) | high polyreactivity
QVQLVESGGGLVQAGGSLRLSCAASGRTFSHYAMGWYRQAPGKERELVAAITWSGGRTYYADSVKGRFTISRDNAKNTVYLQMNSLKPEDTAVYYCAAGKYWPGNYWGQGTQVTVSS | polyreactivity (PSR sort gate) | high polyreactivity
QVQLVESGGGLVQAGGSLRLICAASGRIFPSYTMGWYRQAPGKERELVAGITKSGSSTYYADSVKGRFTISRDNAKNTVYLQMNSLKPEDTAVYYCAAVYGNPSYRYGYWGQGTQVTVSS | polyreactivity (PSR sort gate) | high polyreactivity
QVQLVESGGGLVQAGGSLRLSCAAYGSTFCVYAMGWYRQAQGKERELVAAINFSGRTYYADSVKVRFSISRDNAKNTVYVQMNSLKPEDTAVYYCAARIIFEDVGTKYYYWGQGTHVTVSS | polyreactivity (PSR sort gate) | high polyreactivity
QVQLVESGGGIVQAGGSLRLSCAASGRTFAYYAMGWYRQAPGKERELVAAIDSSGGSTYYADSVKGRFTISRDNAKNTVYLQMYSLKPEDTAVYYCAASYPYDRYDQGGYGYWGQGTQVTVSS | polyreactivity (PSR sort gate) | low polyreactivity
QVQLVESGGGLVQAGGSLRLSCAASGSIFRTYAKGWYRQAPGKERELVATITFGGVSTYYADSVKGRFTISRDNAKNTVYLQMNSLKPEDTAVYYCAADVYTRFWRVYRFDYWGQGTQVTVSS | polyreactivity (PSR sort gate) | low polyreactivity
QVQLVESGGGLVQAGGSLRLSCAASGSIFNYYTMGWYRQAPGKERELVAVITWSDDSTYYADSVKGRFTISRDNAKNTVYLQMNSLKPEDTAVYYCNARSWGWYRIAYGYWGQGTQVTVSS | polyreactivity (PSR sort gate) | low polyreactivity

Origin of the recorded values: the nanobody polyreactivity screen of Harvey et al. (2022)
